Numbers sourced from paper PMC4997346.

target.system: T1, FVIIa/sTF complex [E] (Homo sapiens, UniProt P08709)
T1 chain 1: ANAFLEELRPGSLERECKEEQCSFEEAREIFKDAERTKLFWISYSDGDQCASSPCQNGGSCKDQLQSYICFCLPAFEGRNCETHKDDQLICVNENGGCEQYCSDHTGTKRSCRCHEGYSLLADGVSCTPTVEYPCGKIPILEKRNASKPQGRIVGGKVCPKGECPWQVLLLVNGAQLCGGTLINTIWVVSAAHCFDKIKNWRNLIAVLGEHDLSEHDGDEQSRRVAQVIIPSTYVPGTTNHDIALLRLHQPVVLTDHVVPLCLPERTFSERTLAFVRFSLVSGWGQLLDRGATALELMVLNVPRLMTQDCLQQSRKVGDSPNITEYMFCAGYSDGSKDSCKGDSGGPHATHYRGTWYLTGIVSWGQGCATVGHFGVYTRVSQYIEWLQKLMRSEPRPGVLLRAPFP
T1 chain 2: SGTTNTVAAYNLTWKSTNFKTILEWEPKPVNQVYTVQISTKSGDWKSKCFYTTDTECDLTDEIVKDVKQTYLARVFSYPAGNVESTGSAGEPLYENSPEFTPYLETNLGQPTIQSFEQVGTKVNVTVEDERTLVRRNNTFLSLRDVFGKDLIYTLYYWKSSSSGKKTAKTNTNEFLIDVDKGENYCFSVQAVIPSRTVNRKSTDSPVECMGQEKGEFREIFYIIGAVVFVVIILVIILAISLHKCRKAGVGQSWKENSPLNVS
experiment.notes: FX activation inhibition kinetics (Lineweaver-Burk secondary plot)
measured.endpoint: Ki (mM)
Number only, in mM; omit the unit.

Answer with the recorded Ki for the binder listed here: exactin (protein) LECYQKSKVVTCQPEQKFCYSDTTMFFPNHPVYLSGCTFSCTEEGNRRCCTTDKCNR
1.25
